// data source = the Immune Epitope Database (IEDB)

# tested on: HLA-B*07:02
# assay remarks: IEDB peptide-MHC binding, purified MHC/competitive/fluorescence; bounds were set here for any values at or beyond the usual limits of such assays
# condition label: source organism: Rattus norvegicus
pIC50: −log10 of the molar value.
outcome measure: pIC50

Please look up its pIC50: `SLLERGQQLGV` ≤ 4.70

====

# tested on: HLA-A*01:01
# assay remarks: IEDB peptide-MHC binding, purified MHC/direct/fluorescence; filed as Kd, often an IC50 or EC50 that approximates it; bounds were set here for any values at or beyond the usual limits of such assays
# condition label: source organism: Influenza A virus (A/swine/Bakum/5/95(H1N1))
pKd: −log10 of the molar value.
outcome measure: pKd

Bench note: what pKd did `RGINDRNFW` show? ≤ 4.70
